- System: RAW-Dual (murine macrophage reporter line)
- Assay info: NF-kB reporter (SEAP) activity fold change vs agonist alone; higher = enhanced NF-kB activity
- Stated conditions: modulator concentration 10 µM; agonist: MPLA […]
Measured property: NF-kB reporter
Could you respond with only the numeric value?

Past entries and their recorded results:
Molecule	NF-kB reporter
CC(Cc1ccc(O)c(O)c1)C(C)Cc1ccc(O)c(O)c1 (stereo not given)	1.31
Br.COc1ccc2c3c1O[C@H]1C[C@@H](O)C=C[C@@]31CCN(C)C2	0.947
CC(=O)N1CC(C(=O)Nc2cccc(Br)c2)C1	0.963
CNC(=NC#N)NCCSCc1nc[nH]c1C	1.03

Turning to the following molecule.
INPUT: Tell me the measured NF-kB reporter of Cc1ccc(NS(=O)(=O)c2cc3c4c(cccc4c2)C(=O)NC3=O)cc1C , please.
OUTPUT: 0.875

Hey, just so you know, these numbers are from the supplement of paper PMC10646978.
